Test system: CCRIS mutagenicity, Ames/micronucleus/aberration tests
MEASUREMENT DESCRIPTION: CCRIS mutagenicity studies
EXPERIMENTAL PARAMETERS: End Point: IN VITRO CHROMOSOMAL ABERRATIONS; Test System: CHL CELLS; Metabolic Activation: RAT, LIVER, S-9, SODIUM PHENOBARBITAL AND 5,6-BENZOFLAVONE
Calls of active or inactive are those of the source. No rule for the calls is given here.
Mark one answer only. Choices: active, inactive

O=c1n(CC2CO2)c(=O)n(CC2CO2)c(=O)n1CC1CO1 (stereo not given) ... active
Cc1ccc(N=C=O)cc1N=C=O ... inactive
O=[N+]([O-])c1ccc(Cl)cc1Cl ... active
CCOC(Cl)CCl (stereo not given) ... active

Then there is this compound:
Task: Fill in: this test's call for Nc1ccccc1N is ___
Output: active

* * *

Tested on: CCRIS mutagenicity, Ames/micronucleus/aberration tests
MEASUREMENT DESCRIPTION: CCRIS mutagenicity studies
EXPERIMENTAL PARAMETERS: Test System: AMES SALMONELLA TYPHIMURIUM; Strain/Indicator: TA102; Metabolic Activation: RAT, LIVER, S-9, AROCLOR 1254; Method: STANDARD PLATE
The source made the active and inactive calls. How the calls were made is not given here.
PARAMETER MEASURED: mutagenic call

Below, 5 molecules whose answers are already recorded.
CC(C)CCC[C@@H](C)[C@H]1CC[C@H]2[C@@H]3CC=C4CCCC[C@]4(C)[C@H]3CC[C@]12C ... inactive; negative
NO ... inactive; negative
CC1=C2C(=CO[C@H](C)[C@H]2C)C(=O)C(C(=O)O)=C1O ... inactive; negative
CCN(N)CC ... inactive; negative
Clc1ccccn1 ... active; positive

Per the records, this molecule ( CCOC(=O)c1[nH]c2ccccc2c1N=Cc1ccc(O)cc1 ) has mutagenic call equal to inactive; negative

// O=c1c(O)c(-c2ccc(O)cc2)oc2cc(O)cc(O)c12 : mutagenic call value = active; positive

mutagenic call reading for CC(Oc1ccc(Cl)cc1Cl)C(=O)O (stereo not drawn) : inactive; negative

Reported mutagenic call for CC(C)Nc1nc(Cl)nc(NC(C)C)n1 was inactive; negative

Item: Cc1nc2c(c3[nH]c4ccccc4c13)C(=O)C=CC2=O | mutagenic call: inactive; negative

Reported mutagenic call of O=C([O-])/C=C/C(=O)[O-].[Fe+2] : inactive; negative

// CC1(C)C(=O)[C@]2(C)CC[C@H]1C2 : mutagenic call value = inactive; negative

# mutagenic call (molecule: Clc1ccc(Cl)nc1 ) is inactive; negative

* * *

Test system: CCRIS mutagenicity, Ames/micronucleus/aberration tests
MEASUREMENT DESCRIPTION: CCRIS mutagenicity studies
EXPERIMENTAL PARAMETERS: Test System: AMES SALMONELLA TYPHIMURIUM; Strain/Indicator: TA98; Metabolic Activation: RAT, LIVER, S-9, AROCLOR 1254; Method: STANDARD PLATE
Calls of active or inactive are those of the source. No rule for the calls is given here.
// allowed return values: active, inactive

N#[N+]c1cccc2c1C(=O)c1ccccc1C2=O ... active
CC(=O)Nc1ccc(C(=O)/C=C/c2ccccc2)cc1 ... inactive
BrC(Br)Br ... inactive
Oc1ccc(ON2P(Oc3ccc(O)cc3)N=P(Oc3ccc(O)cc3)(Oc3ccc(O)cc3)N(Oc3ccc(O)cc3)P2Oc2ccc(O)cc2)cc1 (centres undefined) ... inactive
COc1cc(C=O)ccc1O ... inactive
c1ccc2c(c1)c1ccccc1c1cc3cnccc3cc21 ... active
O=[Si]=O ... inactive
COc1ccc(-c2coc3cc(O)cc(O)c3c2=O)cc1 ... inactive

Task: Answer briefly: the call reported for CCCCC/C=C/C=C/C=O in this assay.
Output: inactive

Task: Hi, sorry to bother you, what did the test record for Cc1ccc2c(c1)Cc1cc(C)ccc1-2 ?
Output: inactive

Task: Would you mind telling me which call this test gave OO ?
Output: inactive

Task: For this molecule, state the assay outcome: CCCCCC(=O)O[C@]1(C(C)=O)CC[C@H]2[C@@H]3CCC4=CC(=O)CC[C@@H]4[C@H]3CC[C@@]21C
Output: inactive

Task: Can you look up the reported call for C=CC(=O)O for me?
Output: inactive

Task: Entry COP(=S)(OC)Oc1ccc(N=O)c(C)c1 : call = ?
Output: active

Task: In this assay, the call recorded for Cc1c2ccccc2c(C)c2c1ccc1ccccc12 was what?
Output: active

Task: Entry O=C(OCc1ccc(Cl)cc1Cl)c1cccc2cccnc12 : call = ?
Output: inactive

Task: Assay outcome for Cc1c(C)c2c(nc(N)n2C)c2nccnc12 : what was it?
Output: active

Task: Called result for O=C1c2ccc(O)cc2C(=O)c2ccc(O)cc21
Output: inactive

Task: Hi team, can someone confirm the assay call for COc1cc(-c2ccc(N=C=O)c(OC)c2)ccc1N=C=O ?
Output: active

* * *

System: CCRIS mutagenicity, Ames/micronucleus/aberration tests
MEASUREMENT DESCRIPTION: CCRIS mutagenicity studies
EXPERIMENTAL PARAMETERS: Test System: AMES SALMONELLA TYPHIMURIUM; Strain/Indicator: TA1537; Metabolic Activation: RAT, LIVER, S-9, AROCLOR 1254; Method: STANDARD PLATE
The source made the active and inactive calls. The rule behind the calls is not given here.
Would you mind answering with one of these outcomes? TRUE (active), FALSE (inactive)

Would you please look over these solved cases?
N=C1CCC(=N)c2c1c(O)c1ccccc1c2O ... TRUE
BrC(Br)Br ... FALSE
CC1=CC(=O)c2ccccc2C1=O ... FALSE
O=PO.O=PO.[Mn+2] ... FALSE
Cc1ccc2c(c1Nc1ccccc1)C(=O)c1ccccc1C2=O ... FALSE

Task: Per the records of this test, what outcome belongs to O=c1c(O)c(-c2ccc(O)cc2)oc2cc(O)cc(O)c12 ?
Output: TRUE

Task: Answer briefly: the call reported for CCOC(=O)C(C)=O in this assay.
Output: FALSE

Task: I would be grateful if you could indicate the recorded call for OO .
Output: FALSE

Task: Lab log entry: COC(=O)[C@H]1O[C@@H]1c1ccccc1 — outcome as called in the assay?
Output: FALSE

* * *

System: CCRIS mutagenicity, Ames/micronucleus/aberration tests
MEASUREMENT DESCRIPTION: CCRIS mutagenicity studies
EXPERIMENTAL PARAMETERS: Test System: MOUSE LYMPHOMA; Strain/Indicator: L5178Y (TK+/TK-); Metabolic Activation: NONE; Method: SUSPENSION/PLATE
Calls of active or inactive are those of the source. The rule behind the calls is not given here.
Returns: one label drawn from YES for active, NO for inactive

CC(C)(C)CC(C)(C)c1ccc(OCCO)cc1 ... NO
CC(C)C[C@H]1C(=O)N2CCC[C@H]2[C@]2(O)O[C@](NC(=O)[C@@H]3C[C@@H]4c5cccc6[nH]cc(c56)C[C@H]4N(C)C3)(C(C)C)C(=O)N12 ... NO
CCCCCC[C@H]1C(=O)O[C@H](C)[C@H](NC(=O)c2cccc(NC=O)c2O)C(=O)O[C@@H](C)[C@@H]1OC(=O)CC(C)C ... NO
NO ... YES
CC(=O)Nc1ccc(S(=O)(=O)O)c2cc(S(=O)(=O)O)c(N=Nc3ccc(N=Nc4ccc(S(=O)(=O)O)cc4)c4ccc(S(=O)(=O)O)cc34)c(O)c12 ... NO

Here is another molecule to look at.
Task: Could you kindly confirm the outcome this assay logged for CC(=O)Nc1ccc2c(c1)Cc1ccccc1-2 ?
Output: YES

* * *

Test system: CCRIS mutagenicity, Ames/micronucleus/aberration tests
MEASUREMENT DESCRIPTION: CCRIS mutagenicity studies
EXPERIMENTAL PARAMETERS: Test System: AMES SALMONELLA TYPHIMURIUM; Strain/Indicator: TA1535; Metabolic Activation: RAT LIVER S-9, PHENOBARBITAL AND BETA-NAPHTHOFLAVONE; Method: PREINCUBATION
Active and inactive are the calls of the source. The rule behind the calls is not given here.
Just give me one of these, please: 1 (active), 0 (inactive)

// below: answered compounds
Cc1ccc(S(=O)(=O)NN)cc1 ... 1
O=C(O)CBr ... 0

Task: Hi team, can someone confirm the assay call for C=CCOC(=O)c1ccccc1C(=O)OCC=C ?
Output: 0

Task: Entry [Cl][V]([Cl])[Cl] : call = ?
Output: 0

Task: What classification did Cc1cnc[nH]1 end up with in this test?
Output: 0

Task: Hello, I am checking results. What call was entered for CC1=CC(=C(c2ccc(N)cc2)c2ccc(N)cc2)C=CC1=N ?
Output: 0

Task: Record request — test call for O=[N+]([O-])c1ccc(Cl)cc1Cl
Output: 0

Task: Returns: the outcome recorded for Nc1ccccc1N in this assay.
Output: 0

Task: How was C=CC(=O)O classified in this test?
Output: 0

Task: Identify the outcome logged in this assay for the compound shown: O=Cc1ccco1
Output: 0

Task: Outcome? Cc1ccccc1Cl
Output: 0

Task: Which outcome did this test record for the compound O ?
Output: 0

Task: # outcome recorded in this test, key = O=C(Cl)c1ccc(Cl)cc1
Output: 0

Task: Write down the call the test reported for this compound. Item: O=c1n(CC2CO2)c(=O)n(CC2CO2)c(=O)n1CC1CO1 (stereo not given)
Output: 1

Task: Call for entry Nc1cc(Cl)ccc1[N+](=O)[O-] :
Output: 0
